Biological target: T1, PSMA Fab (006 PSMA Fab)
T1 construct: also called Anti-PSMA Fab
Assay: phage binding ELISA; biotinylated PSMA Fab on neutravidin plate, clonal phage supernatant, anti-M13 HRP detection;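 also: wells were preincubated with blocking buffer either containing PSMA antigen or without it before crude phage supernatant was added, briefly incubated, then washed prior to detection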
result type: Phage binding ELISA signal, Anti-PSMA Fab
Could you keep your reply to the number by itself?

Past entries and their recorded results:
>  <binder>
YEQACQPPWMCLGF [Phage-3178]

>  <reported measurement>
2.02

$$$$
>  <binder>
IQILCTPTWMCVGF [Phage-3182]

>  <reported measurement>
2.01

$$$$
>  <binder>
EGAICKPEWMCKGF [Phage-3183]

>  <reported measurement>
2.01

$$$$
>  <binder>
YEPVCRPAWMCIGF [Phage-3177]

>  <reported measurement>
2.02

$$$$
>  <binder>
HERECIPRWMCTGF [Phage-3180]

>  <reported measurement>
2.01

$$$$

Lab book: Phage binding ELISA signal, Anti-PSMA Fab of VTAKCVPEWMCTGF [Phage-3174] noted as 2.02

Lab book: Phage binding ELISA signal, Anti-PSMA Fab of GVSMCIPAWMCQGF [Phage-3181] noted as 2.01
